The reported measurements were obtained from patent US20240400701A1.

Top (MFI) for assorted binders
# target_or_test_system: T1, human AMHRII (anti-Mullerian hormone receptor type 2) (human, UniProt Q16671 18-573)
# T1 construct: whole, on cells; also called AMHR2; human AMHR2
# T1 sequence (looked up): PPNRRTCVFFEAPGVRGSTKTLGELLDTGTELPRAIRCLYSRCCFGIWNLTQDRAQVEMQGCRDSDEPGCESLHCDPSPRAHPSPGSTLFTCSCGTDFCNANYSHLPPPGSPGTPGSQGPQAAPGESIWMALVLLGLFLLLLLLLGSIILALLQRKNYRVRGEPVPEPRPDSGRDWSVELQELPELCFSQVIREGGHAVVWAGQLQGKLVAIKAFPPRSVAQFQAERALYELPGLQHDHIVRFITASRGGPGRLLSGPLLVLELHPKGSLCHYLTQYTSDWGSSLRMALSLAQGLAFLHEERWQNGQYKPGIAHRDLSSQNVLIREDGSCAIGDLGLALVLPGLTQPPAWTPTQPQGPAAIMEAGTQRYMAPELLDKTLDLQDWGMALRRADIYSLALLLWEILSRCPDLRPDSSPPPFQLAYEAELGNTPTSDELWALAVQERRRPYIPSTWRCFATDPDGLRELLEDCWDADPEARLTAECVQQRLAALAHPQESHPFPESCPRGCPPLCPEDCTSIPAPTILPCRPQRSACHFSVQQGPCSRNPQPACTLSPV
# test_details: FACS on CHO-K1 cells over-expressing human AMHR2

{"binder": "108F3D1E9 H4L1 hIgG1 (antibody, V domains shown, Humanized, human IgG1; also called 108F3D1E9 H4L1 hlgG1) VH: QVQLQESGPGLVKPSETLSLTCTVSGYSITSDFAWNWIRQFPGKGLEWMGYISFSGSTSYNPSLKSRITISRDTSKNQFFLQLSSVTAEDTAVYYCAGSRYSWFAYWGQGTLVTVSS VL: DIQMTQSPSSLSASVGDRVTITCRASESVDTYGNSFMHWYQQKPGKAPKLLIYRASNLESGVPSRFSGSGSGTDFTLTISSLQPEDFATYYCQQSNEDPYTFGGGTKVEIK", "Top (MFI)": 64400}
{"binder": "108F3D1E9 H3L3 hIgG1 (antibody, V domains shown, Humanized, human IgG1; also called 108F3D1E9 H3L3 hlgG1) VH: QVQLQESGPGLVKPSETLSLTCTVSGYSITSDFAWNWIRQFPGKGLEWMGYISFSGSTSYNPSLKSRITISRDTSKNQFSLKLSSVTAADTAVYYCAGSRYSWFAYWGQGTLVTVSS VL: DIVLTQSPSSLSASVGDRVTITCRASESVDTYGNSFMHWYQQKPGQPPKLLIYRASNLESGIPARFSGSGSGTDFTLTISSVQPEDFATYYCQQSNEDPYTFGGGTKVEIK", "Top (MFI)": 66700}
{"binder": "108F3D1E9 H4L2 hIgG1 (antibody, V domains shown, Humanized, human IgG1; also called 108F3D1E9 H4L2 hlgG1) VH: QVQLQESGPGLVKPSETLSLTCTVSGYSITSDFAWNWIRQFPGKGLEWMGYISFSGSTSYNPSLKSRITISRDTSKNQFFLQLSSVTAEDTAVYYCAGSRYSWFAYWGQGTLVTVSS VL: DIQLTQSPSSLSASVGDRVTITCRASESVDTYGNSFMHWYQQKPGKPPKLLIYRASNLESGIPSRFSGSGSGTDFTLTISSLQPEDFATYYCQQSNEDPYTFGGGTKVEIK", "Top (MFI)": 67900}
{"binder": "108F3D1E9 H3L1 hIgG1 (antibody, V domains shown, Humanized, human IgG1; also called 108F3D1E9 H3L1 hlgG1) VH: QVQLQESGPGLVKPSETLSLTCTVSGYSITSDFAWNWIRQFPGKGLEWMGYISFSGSTSYNPSLKSRITISRDTSKNQFSLKLSSVTAADTAVYYCAGSRYSWFAYWGQGTLVTVSS VL: DIQMTQSPSSLSASVGDRVTITCRASESVDTYGNSFMHWYQQKPGKAPKLLIYRASNLESGVPSRFSGSGSGTDFTLTISSLQPEDFATYYCQQSNEDPYTFGGGTKVEIK", "Top (MFI)": 65400}
{"binder": "108F3D1E9 H3L4 hIgG1 (antibody, V domains shown, Humanized, human IgG1; also called 108F3D1E9 H3L4 hlgG1) VH: QVQLQESGPGLVKPSETLSLTCTVSGYSITSDFAWNWIRQFPGKGLEWMGYISFSGSTSYNPSLKSRITISRDTSKNQFSLKLSSVTAADTAVYYCAGSRYSWFAYWGQGTLVTVSS VL: DIVLTQSPSSLSVSVGDRATITCRASESVDTYGNSFMHWYQQKPGQPPKLLIYRASNLESGIPARFSGSGSRTDFTLTISSVQPEDFATYYCQQSNEDPYTFGGGTKLEIK", "Top (MFI)": 70900}
